test system: HCT-8 host cells (Hs18S); details: primary screening at 10 uM, treated vs control
Short version: Hs18S ΔCT at least -0.2 is T, less is F.

>>> answer_label("CC(C(=O)O)[C@H]1CCC2C3CC=C4C[C@@H](O)CC[C@]4(C)C3CC[C@@]21C (stereo partly shown)")
"F"
>>> answer_label("CC(=O)Oc1cc(-c2coc3cc(OC(C)=O)c(OC(C)=O)c(OC(C)=O)c3c2=O)cc(OC(C)=O)c1OC(C)=O [IRIGINOL HEXAACETATE]")
"T"
>>> answer_label("CC(=O)OC1CCC2(C)C(CC(OC(C)=O)C3(C)C4=CC(=O)OC(c5ccoc5)C4(C)CCC23)C1(C)C (stereo not drawn) [3alpha-ACETOXYDIHYDRODEOXYGEDUNIN]")
"F"
>>> answer_label("COc1ccc(-c2coc3cc(O)cc(O)c3c2=O)cc1")
"T"
>>> answer_label("COc1ccc2c(c1)OC[C@@H](Cc1ccc(OC)c(OC)c1)[C@H]2O")
"T"
>>> answer_label("CC(=O)O[C@H]1C[C@@H](OC(C)=O)C(C)(C)[C@@H]2C[C@@H](OC(C)=O)[C@@]3(C)C4=CC(=O)O[C@@H](c5ccoc5)[C@]4(C)CC[C@@H]3[C@@]12C")
"T"
>>> answer_label("COc1cc2occc2c2oc(=O)ccc12")
"T"

###

assay: in vitro; conditions: human
MEASURED_ENDPOINT: cytotoxicity at 41 h, 10 µM (%)

>>> reported_value("COC(=O)/C(=C1/OC(=O)C(c2ccccc2)=C1O)c1ccccc1")
36
>>> reported_value("COc1ccc(-c2cc(=O)c3c(OC)c(OC)c(OC)c(OC)c3o2)cc1OC")
16.2
>>> reported_value("OCc1ccccc1O[C@@H]1O[C@H](CO)[C@@H](O)[C@H](O)[C@H]1O")
32.9
>>> reported_value("CC(=O)Oc1c(C)c(C)c2c(c1C)CCC(C)(CCCC(C)CCCC(C)CCCC(C)C)O2 (stereo not drawn) [alpha-TOCHOPHERYL ACETATE]")
-15.8

###

assay: in vitro; settings: human
Labelling field: enter true (1) if recorded cytotoxicity at 41 h, 10 µM is less than 10%. Enter false (0) if it equals or exceeds that cut-off.

>>> answer_label("COc1ccc2cc1Oc1ccc(cc1)C[C@H]1c3c(cc4c(c3Oc3cc5c(cc3OC)CCN(C)[C@@H]5C2)OCO4)CCN1C")
"false (0)"
>>> answer_label("O=C(O)c1cc(=O)[nH]c(=O)[nH]1")
"true (1)"
>>> answer_label("CCCCCCCCCCCCCCCC(=O)OCC(O)CO (stereo not shown)")
"true (1)"
>>> answer_label("CC1=C2C(O)C(=O)OC3CC4C(C)(C)C(=O)C=C[C@]4(C)C(CC1)[C@]23C (stereo partly shown)")
"true (1)"
>>> answer_label("COc1c2occc2c(OC)c2c(=O)cc(C)oc12")
"false (0)"
>>> answer_label("CC(C)c1ccc2c(c1)CC[C@H]1[C@](C)(C(N)=O)CCC[C@]21C [DEHYDROABIETAMIDE]")
"true (1)"
>>> answer_label("CCCCCCCCCCCCCCCCCCOCC(O)CO (stereo not shown)")
"true (1)"
>>> answer_label("Nc1nc2c(c(=O)[nH]1)N=C(CNc1ccc(C(=O)N[C@@H](CCC(=O)O)C(=O)O)cc1)CN2 [DIHYDROFOLIC ACID]")
"true (1)"
>>> answer_label("O=C(CCc1ccc(O)cc1)c1c(O)cc(O)cc1O[C@@H]1O[C@H](CO)[C@@H](O)[C@H](O)[C@H]1O")
"true (1)"
>>> answer_label("O=c1c2cc(O)c(O)cc2oc2cc(O)c([C@@H]3O[C@H](CO)[C@@H](O)[C@H](O)[C@H]3O)c(O)c12")
"false (0)"
>>> answer_label("CC(=O)O[C@@H]1C[C@@]2(C)[C@H](c3ccoc3)C[C@H]3O[C@]32[C@]2(C)C(=O)C(O)=C3C(C)(C)C(=O)C=C[C@]3(C)[C@@H]12")
"false (0)"
>>> answer_label("C[C@H]1O[C@H](O[C@H]2[C@H](O)[C@@H](O)[C@@H](O[C@H]3[C@H](O)[C@@H](O)C(O)O[C@@H]3CO)O[C@@H]2CO)[C@H](O)[C@@H](O)[C@@H]1N[C@H]1C=C(CO)[C@@H](O)[C@H](O)[C@H]1O (stereo partly shown)")
"false (0)"
>>> answer_label("CCOc1ccc(C(=O)c2ccc(OC)c(O)c2O)cc1")
"true (1)"
>>> answer_label("CC(C)c1ccc2c(c1O)CC[C@H]1C3=C(CC[C@]21C)C(=O)OC3 [TRIPTOPHENOLIDE]")
"true (1)"
>>> answer_label("OC[C@@H](O)[C@@H](O)[C@@H](O)CO")
"false (0)"
>>> answer_label("Cc1cc(O)c2c(c1)C(=O)c1cccc(O)c1C2=O")
"false (0)"

###

test system: HCT-8 host cells (Hs18S); settings: human, 41 h, 10 μM
Reported Hs18S ΔCT values follow for various molecules
MEASURED_ENDPOINT: Hs18S ΔCT

>>> reported_value("C=C1C(N)CC2CC1C2(C)C (centres unmarked)")
0.42
>>> reported_value("O=C(O[C@@H]1Cc2c(O)cc(O)cc2O[C@@H]1c1cc(O)c(=O)c2c(O)c(O)cc([C@H]3Oc4cc(O)cc(O)c4C[C@H]3O)c2c1)c1cc(O)c(O)c(O)c1")
-0.10
>>> reported_value("N[C@@H](Cc1c[nH]c2ccccc12)C(=O)O")
-0.75
>>> reported_value("O=C1c2c(O)cccc2C([C@@H]2O[C@H](CO)[C@@H](O)[C@H](O)[C@H]2O)c2cc(CO)cc(O)c21 (some centres unmarked)")
-0.63
>>> reported_value("COc1ccc2c(c1)OC/C(=C\\c1ccc(OC)c(O)c1)C2=O")
0.18
>>> reported_value("O=C(/C=C/c1ccccc1)c1ccc(O)cc1O [2',4'-DIHYDROXYCHALCONE]")
0.09
>>> reported_value("COc1ccc2c(c1)OC[C@H](Cc1ccc(OC)c(O)c1)C2=O")
0.62
>>> reported_value("O=c1cc(-c2ccccc2)oc2ccc(O)cc12 [6-HYDROXYFLAVONE]")
0.08

###

Reported cytotoxicity at 10 µM values follow for various molecules
experiment: in vitro
Structures can show the parent of a compound that is named as a salt.
MEASURED_ENDPOINT: cytotoxicity at 10 µM (%)

>>> reported_value("O=c1c(O)c(-c2ccc(O)c(O)c2)oc2cc(O)cc(O)c12 [QUERCETIN]")
21.1
>>> reported_value("C=CCN1CC[C@]23c4c5ccc(O)c4O[C@H]2C(=O)CC[C@@]3(O)[C@H]1C5 [NALOXONE HYDROCHLORIDE]")
12.7
>>> reported_value("CC(=O)Oc1cc(OC(C)=O)c2c(c1)O[C@H](c1ccc(OC(C)=O)c(OC(C)=O)c1)[C@H](OC(C)=O)C2 [EPICATECHIN PENTAACETATE]")
-1.3
>>> reported_value("COc1c2ccoc2cc2oc(=O)ccc12 [BERGAPTEN]")
4.3
>>> reported_value("COc1ccc2c3c([nH]c2c1)C(C)=NCC3 [HARMALINE]")
0.9
>>> reported_value("C[C@H](CCC(=O)NCC(=O)O)[C@H]1CC[C@H]2[C@@H]3[C@H](O)C[C@@H]4C[C@H](O)CC[C@]4(C)[C@H]3C[C@H](O)[C@]12C [GLYCOCHOLIC ACID]")
-23.7
>>> reported_value("Cc1cc(=O)oc2cc(O)c(O)cc12 [4-METHYLESCULETIN]")
0.7
>>> reported_value("CC[C@H](/C=C/[C@@H](C)[C@H]1CC[C@H]2[C@@H]3CC=C4C[C@@H](O)CC[C@]4(C)[C@H]3CC[C@]12C)C(C)C [STIGMASTEROL]")
48.6
>>> reported_value("N=C(N)NOCC[C@H](N)C(=O)O [CANAVANINE]")
18.4
>>> reported_value("C/C=C1\\[C@H]2C=C(C)C[C@]1(N)c1ccc(=O)[nH]c1C2 [HUPERZINE A]")
12.4
>>> reported_value("CC[C@@]1(O)C(=O)OCc2c1cc1n(c2=O)Cc2cc3ccccc3nc2-1 [CAMPTOTHECIN]")
60.8
>>> reported_value("COc1cc2c(cc1OC)[C@@H]1C(=O)c3ccc4oc(C(C)C)cc4c3O[C@@H]1CO2 [ISOROTENONE]")
38.9
>>> reported_value("CCCCCC[C@H]1C(=O)O[C@H](C)[C@H](NC(=O)c2cccc(NC=O)c2O)C(=O)O[C@@H](C)[C@@H]1OC(=O)CC(C)C [ANTIMYCIN A, ANTIMYCIN A (A1 shown)]")
7.7
>>> reported_value("C[C@@H](CO)NC(=O)[C@@H]1C=C2c3cccc4[nH]cc(c34)C[C@H]2N(C)C1 [ERGONOVINE MALEATE]")
14.5
>>> reported_value("COc1cc2ccc(=O)oc2c2ccoc12 [SPHONDIN]")
20.1
>>> reported_value("CC(=O)O[C@H]1C[C@H](O[C@H]2[C@@H](O)C[C@H](O[C@H]3[C@@H](O)C[C@H](O[C@H]4CC[C@@]5(C)[C@H](CC[C@@H]6[C@@H]5C[C@@H](O)[C@]5(C)[C@@H](C7=CC(=O)OC7)CC[C@]65O)C4)O[C@@H]3C)O[C@@H]2C)O[C@H](C)[C@H]1O[C@@H]1O[C@H](CO)[C@@H](O)[C@H](O)[C@H]1O [LANATOSIDE C]")
99.8
>>> reported_value("CN1CCCCC1c1ccc(-c2cccnc2)nc1 (stereo not drawn) [ANABASAMINE HYDROCHLORIDE]")
24.3
>>> reported_value("CC(=O)Oc1c2c(c(CC=C(C)C)c3c1C(=O)C1=C[C@@H]4CC5C(C)(C)OC(C/C=C(\\C)C(=O)O)(C4=O)[C@@]15O3)OC(C)(CCC=C(C)C)C=C2 (stereo partly drawn) [ACETYL I[…]]")
66.4
>>> reported_value("CCN1C[C@]2(COC)[C@H](O)C[C@H](OC)[C@@]34[C@@H]5C[C@@]6(O)[C@H](OC(=O)c7ccccc7)[C@@H]5[C@@](OC(C)=O)([C@@H]([C@H](OC)[C@H]23)[C@@H]14)[C@@H](O)[C@@H]6OC [ACONITINE]")
-11.7
>>> reported_value("CN1[C@@H]2CC[C@H]1C[C@@H](OC(=O)C(CO)c1ccccc1)C2 (stereo partly drawn) [ATROPINE SULFATE]")
16.3
>>> reported_value("O=c1c(O)c(-c2ccc(O)cc2O)oc2cc(O)cc(O)c12 [MORIN]")
-15.6
>>> reported_value("COc1ccc(-c2cc(=O)c3c(O)cc(OC)cc3o2)cc1 [APIGENIN DIMETHYL ETHER]")
11.3
>>> reported_value("O=C(O)c1ccc2c(c1)OCO2 [PIPERONYLIC ACID]")
-3.1
>>> reported_value("C[n+]1cc2c3c(ccc2c2ccc4cc5c(cc4c21)OCO5)OCO3 [SANGUINARINE SULFATE]")
4.9
>>> reported_value("COC1=CC(=O)C=C(OC)C1=O [2,6-DIMETHOXYQUINONE]")
-4.3
>>> reported_value("CNC[C@H](O)c1ccc(O)c(O)c1 [EPINEPHRINE BITARTRATE]")
2.6
>>> reported_value("O=C(O)c1cc(O)c2cccc(O)c2n1 [X[…]]")
-24.4
>>> reported_value("C[C@H]1C(=O)O[C@@H]2CCN3CC=C(COC(=O)[C@](C)(O)[C@]1(C)O)[C@H]23 [MONOCROTALINE]")
9.5
>>> reported_value("C=C(C)[C@@H]1CC[C@]2(CO)CC[C@]3(C)[C@H](CC[C@@H]4[C@@]5(C)CC[C@H](O)C(C)(C)[C@@H]5CC[C@]43C)[C@@H]12 [BETULIN]")
-40.4
>>> reported_value("C[C@@H]1CC[C@@]2(OC1)O[C@H]1C[C@H]3[C@@H]4CC=C5C[C@@H](O)CC[C@]5(C)[C@H]4CC[C@]3(C)[C@H]1[C@@H]2C [DIOSGENIN]")
19.7
